Molecular target: specific ANP receptor sites on BASM or BAE cells (Bos taurus, UniProt P10730)
Construct: specific receptor sites on BASM or BAE cells; endogenous in cells; host or cells: cultured BASM and BAE cells
Sequence (P10730 42-537): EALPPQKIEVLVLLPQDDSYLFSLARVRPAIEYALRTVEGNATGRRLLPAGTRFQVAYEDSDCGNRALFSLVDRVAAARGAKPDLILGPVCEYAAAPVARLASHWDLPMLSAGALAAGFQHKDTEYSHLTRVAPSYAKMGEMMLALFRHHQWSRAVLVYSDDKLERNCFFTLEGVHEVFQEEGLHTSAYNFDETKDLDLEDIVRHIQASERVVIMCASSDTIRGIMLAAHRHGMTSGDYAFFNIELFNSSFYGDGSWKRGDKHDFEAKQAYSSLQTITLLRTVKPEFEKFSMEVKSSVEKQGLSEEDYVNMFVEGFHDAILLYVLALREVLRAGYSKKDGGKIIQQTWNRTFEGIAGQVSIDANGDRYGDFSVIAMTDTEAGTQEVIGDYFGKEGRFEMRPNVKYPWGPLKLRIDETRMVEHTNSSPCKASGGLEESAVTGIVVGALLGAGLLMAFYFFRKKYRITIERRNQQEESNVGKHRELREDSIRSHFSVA
Test: Competitive displacement receptor binding of (125I)-rANP(126-150) on cultured cells
Parameters: species or system bovine
Conditions: concentration of unlabeled peptide displacing 50% of maximal binding of 0.5 nM (125I)-rANP(126-150); BASM or BAE cells
*1 amine or outer side, *2 acyl side, *3 side chain or, on linkers, in order; H or OH if unused. Where a SMILES comes first, the peptide text is derived from it. [ ]: non-standard residue; d: D form. The star is where a group is joined. Dibenzylacetyl = O=C(C(Cc1ccccc1)Cc1ccccc1)*; Cyclohexylacetyl = O=C(CC1CCCCC1)*; X1 = O=C(Cc1ccc(N[*:1])cc1)[*:2]; X6 = O=C(C(Br)c1ccccc1)*
Measured attribute: Ki(app) (nM)

Compound	Measured attribute	Recorded value
CC[C@H](C)[C@H](NC(=O)[C@H](CCCNC(=N)N)NC(=O)[C@H](CC(=O)O)NC(=O)[C@@H](NC(=O)[C@H](CCCNC(=N)N)NC(=O)CNC(=O)CNC(=O)CC1CCCCC1)[C@@H](C)CC)C(N)=O [AP334, (CHA)--G--G--R--I--D--R--I--NH2] (Cyclohexylacetyl-GGRIDRI-NH2)	Ki(app)	92.8
CC[C@H](C)[C@H](NC(=O)[C@H](CCCNC(=N)N)NC(=O)[C@H](CC(=O)O)NC(=O)[C@@H](NC(=O)[C@H](CCCNC(=N)N)NC(=O)CNC(=O)CNC(=O)C(Cc1ccccc1)Cc1ccccc1)[C@@H](C)CC)C(=O)NCC(=O)N[C@@H](C)C(N)=O [AP534, (DBA)--G--G--R-- I--D--R--I--G--A--NH2)] (Dibenzylacetyl-GGRIDRIGA-NH2)	Ki(app)	8.81
CC[C@H](C)[C@H](NC(=O)[C@H](CCCNC(=N)N)NC(=O)[C@H](CC(=O)O)NC(=O)[C@@H](NC(=O)[C@H](CCCNC(=N)N)NC(=O)Cc1ccc(NC(=O)C(Br)c2ccccc2)cc1)[C@@H](C)CC)C(N)=O (stereo partly drawn) [AP818] (X6-[X1]RIDRI-NH2)	Ki(app)	20.5

Values compiled from patent US5047397A.
